# Tested on: SR leukemia
# testDetails: NCI tumour cell line growth inhibition, 48 h; in the data active means GI50 below about 0.43 µM; inactive means the rest
Give one outcome, nothing more. List: active, inactive

These recorded examples may help you get a feel for the data.
{"molecule": "CC(C)N(Cc1ccccc1)c1c(S)ssc1=S", "targetDesc": "SR leukemia", "group": "inactive"}
{"molecule": "FC(F)(F)c1ccc(Nc2nc(-c3c(C(F)(F)F)nc4ccccn34)cs2)cc1", "targetDesc": "SR leukemia", "group": "active"}
{"molecule": "Fc1ccc2c(c1)C1=NN(c3ccccc3)C(F)C1CO2 (stereo unspecified)", "targetDesc": "SR leukemia", "group": "inactive"}

Per the records of this test, what outcome belongs to O=C1Nc2ccccc2/C1=C/C(=O)c1coc2c1C(=O)c1ccccc1C2=O ?
inactive

CCCCCCCCCCCCCCCCCCOc1ccccc1CC(=O)OCC[N+]1(C)CCCCC1 , same question.
inactive

C#Cc1c(F)ccc2cc(O)cc(-c3ncc4c(N5CC6CCC(C5)N6)nc(OC[C@@]56CCCN5C[C@H](F)C6)nc4c3F)c12 , same question.
inactive

CCN(CC)CCCCNc1c2ccccc2[n+](C)c2c1[nH]c1ccccc12 , same question.
active

O=[N+]([O-])O.[Cu+2].[NH-]CC[NH-].[NH-]CC[NH-] , same question.
inactive

CN(O)c1nc(N(C)O)nc(N2CCOCC2)n1 , same question.
inactive

Cc1cc(O)c(C(C)C)cc1S(=O)(=O)O (tested in a mixture with another compound) , same question.
active

COc1cnc2c(c1)C(=O)c1c-2n(CCCn2ccnc2)c(=O)c2cc(F)ccc12 , same question.
active
